- experimentalSystem: PARD3 PDZ3 domain (residues 582-685) (human, UniProt Q8TEW0 582-685)
- Sequence (Q8TEW0 582-685): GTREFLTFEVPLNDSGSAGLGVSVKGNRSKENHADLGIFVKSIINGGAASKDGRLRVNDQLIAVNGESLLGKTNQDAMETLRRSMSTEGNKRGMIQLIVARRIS
- protocol: MST
pKd: −log10 of the molar value.
experimentalEndpoint: pKd

1) NLNSSRVPDLLV [C-terminal SARS-CoV-2-E PBM peptide (12-mer, original strain)] | 3.47
